Test system: EKVX
Test: NCI tumour cell line growth inhibition, 48 h
Calls of active or inactive are those of the source. Cut-off read from the data, not from the text of the source: active = GI50 up to about 1.1 µM and inactive = higher.
Labels: Y = active, N = inactive

• CC(=O)NC(CCCNC(=O)OCc1ccccc1)C(=O)O (configuration not stated) = N
• O=S1(=O)C(c2ccccc2)C(N2CCCCC2)C1C1CC2c3ccccc3C1c1ccccc12 (configuration not stated) = N
• Cc1cc(O)c(C(C)C)cc1CN1CCCCC1 = N
• O=S(=O)(NCn1ccc2ccccc21)c1ccccc1 = N
• COC(=O)c1ccccc1/N=C/c1ccc(N(CCC#N)S(=O)(=O)c2ccccc2)cc1 = N
• CC/C(CC(=O)CCC(=O)Nc1ccc(C)c(C)c1)=N\NC(=O)C(N)=O = N
• O=C1c2ccccc2C(=O)c2c(OCCOCCO)cccc21 = N
• CCOC(=O)c1ccc(NCc2ccc3oc(=O)c(-c4ccccc4)nc3c2)cc1 = N
• C1CNOCCCONCCCNOCCCONC1 = N
• CC(C)Oc1cc2c(cc1O)CC[C@@H]1[C@@H]2CC[C@]2(C)[C@@H](O)CC[C@@H]12 = N
• C=CC[C@H]1[C@H](O[Si](C)(C)C(C)(C)C)C=CC(=O)[C@@H]1CC(=O)N(Cc1ccccc1)Cc1ccccc1 = N
• CCOC(=O)/C=C/CCC(C)(C)COC(C)=O = N
• COC(=O)C(=O)C(C(=O)C(=O)Nc1ccccc1C(N)=O)c1nc2ccc([N+](=O)[O-])cc2nc1O (configuration not stated) = N
• COc1cc(-c2nnc3n2NC=C(C(=O)O)S3)cc(OC)c1OC = N
• CC(=O)n1nc(-c2[nH]c(C)c(-c3nn(C(C)=O)c(=S)o3)c2C)oc1=S = N
• COc1ccnc2c1C(=O)c1nc3ccccc3c3ccnc-2c13 = Y
• COc1cccc(C2c3cc4c(cc3OC(Nc3ccccc3)C2C)OCO4)c1O (configuration not stated) = N
• COC(=O)C12CC3CC(C1)CC(C(=O)OC)(C3)C2 = N
• O=S(=O)(/N=S(/Nc1ccccc1)C(F)(F)Cl)c1ccccc1 (configuration not stated) = N
• Cc1cc2nc3c(C#N)c(C)c(CCCl)c(Cl)n3c2cc1C = N
• Cn1c(=O)c2ccccc2[n+]2c(-c3cccc([N+](=O)[O-])c3)csc12 = N
• Cc1ccc(CC[PH](=O)CCc2ccc(C)nc2)cn1 = N
• S=C1c2ccccc2N=C(NC2CCCC2)C2CSCN12 (configuration not stated) = N
• COc1cc[n+](C)cc1 = N
• NC(CSc1nc2ccccn2c1[N+](=O)[O-])C(=O)O (configuration not stated) = N
• Clc1cccc(C2ON=C(c3ccccc3)N2C23CC4CC(CC(C4)C2)C3)c1Cl (configuration not stated) = N
• COc1ccc(/C=C2/NC(=S)N=C2Cl)cc1 = N
• CC1(C)Cc2c(cnn2-c2ccc(C(F)(F)F)cc2)-c2[nH]c(-c3ccc(O)cc3)nc21 = N
• Cc1ccc2nc3cc(C)c(=O)cc-3sc2c1 = N
• C=C[C@H]1CN2CC[C@H]1C[C@@H]2[C@@H](O)c1ccnc2ccccc12 = N
• Cc1nn(C(=O)c2ccncc2)c2c1C(c1ccc(Cl)cc1)SC(=N)N2 (configuration not stated) = N
• CCN(CC)S(=O)(=O)c1ccc2[nH]c(NC(=O)OC)nc2c1 = N
• CO[C@@]12C[C@@H](C)[C@]34O[C@H]3C[C@]3(C)O[C@]43CC1=C(C)C(=O)O2 = N
• O=C(Nc1cccc(C(F)(F)F)c1)O/N=C(/Cl)CCl = N
• C[C@H](OCc1ccccc1)C(=O)N1CCS(=O)(=O)N2CCC[C@H]2C1=O = N
• O=C(N/N=C/c1ccccc1O)c1cccc([N+](=O)[O-])c1 = N
• O=C(Nc1ccc(Cl)cc1)c1cc(S(=O)(=O)Nc2n[nH]c(=O)n2-c2ccccc2)c(S)cc1Cl = N
• Cc1ccccc1C(C#N)/C(=N/NC(=O)C(=O)NN)C(=O)Nc1cccc(C(F)(F)F)c1 (configuration not stated) = N
• CCN(CC)CCNc1ccc([N+](=O)[O-])c2nc3ccc(OC)cc3c(N)c12 = N
• N#Cc1ccc(/C=C2\Cc3ccccc3C2=O)cc1 = N
• COc1ccc(/C=N/N=C(\N)NO)cc1OC = N
• C=CCOC(=O)N1c2ccc(O[Si](C)(C)C(C)(C)C)cc2[C@@]23O[C@@]24[C@@H]1C#C/C=C\C#C[C@]3(O)C(OC)(OC)C[C@@H]4C = N
